# assayRemarks: viability loss with induced miR-34 in A549 – imaging, A549 dox-inducible miR-34, nuclei and caspase counts, primary screen (AID 1347080); further: test concentration not given here
# runParameters: A549 miR-34 inducible, Hoechst nuclei count, 48 h; measured here: total cells with miR-34 induction; stronger effect = lower value
measurementName: cell count

compound	obsValue
C=C1C(=O)O[C@H](CCCCCCCC)[C@H]1C(=O)O	6150
CCC(=O)NC1CCc2cccc(OC)c2C1 (stereo unspecified)	8550
CCCCCCCC/C=C\CCCCCCCCCCCC(N)=O	6240
CCCCC[C@H](O)CC[C@@H]1[C@@H](CCCCCCC(=O)O)[C@@H](O)C[C@H]1O	6210
Nc1nc2c([nH]c(=O)n2[C@H]2C[C@H](O)[C@@H](CO)O2)c(=O)[nH]1	4960
C=C[C@H]1CN2CCC1C[C@@H]2C(O)c1ccnc2ccc(OC)cc12 (stereo partly specified)	5680
